Test system: Escherichia coli
TEST METHOD NOTES: Inhibition of Escherichia coli DdlB at 500 uM after 20 mins by malachite green staining-based colorimetric assay
Answer NOT MET if inhibition is under 60%, and MET if it is 60% or more.

>>> print(df.to_string())
                             item_smiles  classification
0     N/C(=N/OC(=O)c1ccc2nsnc2c1)c1ncon1             MET
1     N/C(=N\OC(=O)Nc1cccc(Cl)c1)c1ccno1         NOT MET
2     O=C1NC(=O)C(=C(O)Nc2ccccc2)C(=O)N1             MET
3  O=C(N/N=C/c1cc(=O)[nH]c(O)n1)c1ccncc1             MET
4    N/C(=N\OC(=O)Nc1ccc(Cl)cc1)c1cnccn1             MET
